measurement.protocol: Pharmacokinetics of a single ascending oral dose in healthy male subjects
Format: in vivo, human
condition.info: human, in vivo; single oral dose 50 mg, unformulated in capsule, healthy male subjects; geometric mean

molecule	half-life [min]
O[C@H]1CC[C@H](Nc2ncc3nc(Nc4c(F)cc(F)cc4F)n([C@H]4CCOC4)c3n2)CC1 [Compound I]	1230

----------
measurement.protocol: Toxicokinetics in pregnant female rabbits
Assay type: in vivo, rabbit
condition.info: female, New Zealand White Hra:(NZW)SPF, rabbit, plasma, po, 40 mg/kg/day, pregnant rabbits, 40 mg/kg/d oral, Gestation Day 18

compound	AUC / µg·h/mL
O[C@H]1CC[C@H](Nc2ncc3nc(Nc4c(F)cc(F)cc4F)n([C@H]4CCOC4)c3n2)CC1 [Compound I]	152

----------
measurement.protocol: clinical
condition.info: female, human, in vivo, po, 100 mg, Tmax, Median
readout: Tmax (h)

compound	unit.symbol	experimental.result
O[C@H]1CC[C@H](Nc2ncc3nc(Nc4c(F)cc(F)cc4F)n([C@H]4CCOC4)c3n2)CC1 [Compound I]	h	2.06

----------
measurement.protocol: clinical
condition.info: male, human, in vivo, 100 mg, t1/2

molecule	half-life / h
O[C@H]1CC[C@H](Nc2ncc3nc(Nc4c(F)cc(F)cc4F)n([C@H]4CCOC4)c3n2)CC1	32

----------
measurement.protocol: Pharmacokinetics (plasma and urine) of ascending multiple oral doses in healthy volunteers
Format: in vivo, human
condition.info: both sexes, human, plasma, oral, 25 mg, 25 mg QD, Day 1, plasma (N = 8); geometric mean
readout: AUC(0-inf) (ng·h/mL)

molecule	unit.symbol	experimental.result
O[C@H]1CC[C@H](Nc2ncc3nc(Nc4c(F)cc(F)cc4F)n([C@H]4CCOC4)c3n2)CC1	ng·h/mL	4260

----------
measurement.protocol: Pharmacokinetics (plasma and urine) of ascending multiple oral doses in healthy volunteers
Format: in vivo, human
condition.info: both sexes, human, urine, oral, 100 mg, 100 mg QD, Day 1, urine (n = 8); geometric mean; read-out: CLR (renal clearance of drug)

molecule	CL renal / mL/min
O[C@H]1CC[C@H](Nc2ncc3nc(Nc4c(F)cc(F)cc4F)n([C@H]4CCOC4)c3n2)CC1	12

----------
measurement.protocol: Toxicokinetics in pregnant female rabbits
Type: in vivo, rabbit
condition.info: female, New Zealand White Hra:(NZW)SPF, rabbit, plasma, po, 10 mg/kg/day, pregnant rabbits, 10 mg/kg/d oral, Gestation Day 18

molecule	unit.symbol	AUC
O[C@H]1CC[C@H](Nc2ncc3nc(Nc4c(F)cc(F)cc4F)n([C@H]4CCOC4)c3n2)CC1	ng·h/mL	39300

----------
measurement.protocol: Pharmacokinetics (plasma and urine) of ascending multiple oral doses in healthy volunteers
Assay type: in vivo, human
condition.info: both sexes, human, plasma, oral, 100 mg, 100 mg QD, Day 1, plasma, healthy subjects (N = 8); geometric mean; read-out: Ctrough
readout: concentration at 24 h (ng/mL)

compound	experimental.result
O[C@H]1CC[C@H](Nc2ncc3nc(Nc4c(F)cc(F)cc4F)n([C@H]4CCOC4)c3n2)CC1 [Compound I]	183

----------
measurement.protocol: Toxicokinetics in pregnant female rats
Format: in vivo, rat
condition.info: female, Crl:CD(SD), rat, plasma, 50 mg/kg/day; pregnant rats, 50 mg/kg/d oral, Gestation Day 6

molecule	Cmax [µg/mL]
O[C@H]1CC[C@H](Nc2ncc3nc(Nc4c(F)cc(F)cc4F)n([C@H]4CCOC4)c3n2)CC1	3.92

----------
measurement.protocol: Pharmacokinetics (plasma and urine) of ascending multiple oral doses in healthy volunteers
Format: in vivo, human
condition.info: both sexes, human, urine, oral, 50 mg, 50 mg QD, Day 1, urine (n = 8); geometric mean; read-out: CLR (renal clearance of drug)

molecule	unit.symbol	CL renal
O[C@H]1CC[C@H](Nc2ncc3nc(Nc4c(F)cc(F)cc4F)n([C@H]4CCOC4)c3n2)CC1	mL/min	10.9

----------
measurement.protocol: clinical
condition.info: male, human, in vivo, po, 100 mg, AUCO-inf
readout: AUC (ng·h/mL)

molecule	unit.symbol	experimental.result
O[C@H]1CC[C@H](Nc2ncc3nc(Nc4c(F)cc(F)cc4F)n([C@H]4CCOC4)c3n2)CC1 [Compound I]	ng·h/mL	16000

----------
measurement.protocol: clinical
condition.info: both sexes, human, in vivo, po, 100 mg, Cmax
readout: Cmax

molecule	readout	experimental.result
O[C@H]1CC[C@H](Nc2ncc3nc(Nc4c(F)cc(F)cc4F)n([C@H]4CCOC4)c3n2)CC1	Cmax	742 ng/mL

----------
measurement.protocol: Pharmacokinetics (plasma and urine) of ascending multiple oral doses in healthy volunteers
Assay type: in vivo, human
condition.info: both sexes, human, urine, oral, 25 mg, 25 mg QD, Day 14, urine (n = 8); geometric mean; read-out: CLR (renal clearance of drug)
readout: CL renal at 14 days (mL/min)

molecule	experimental.result
O[C@H]1CC[C@H](Nc2ncc3nc(Nc4c(F)cc(F)cc4F)n([C@H]4CCOC4)c3n2)CC1	13.3

----------
measurement.protocol: Pharmacokinetics of a single ascending oral dose in healthy male subjects
Type: in vivo, human
condition.info: human, in vivo; single oral dose 50 mg, unformulated in capsule, healthy male subjects; geometric mean

molecule	unit.symbol	AUC(0-inf)
O[C@H]1CC[C@H](Nc2ncc3nc(Nc4c(F)cc(F)cc4F)n([C@H]4CCOC4)c3n2)CC1	ng·h/mL	7320

----------
measurement.protocol: Pharmacokinetics (plasma and urine) of ascending multiple oral doses in healthy volunteers
Assay type: in vivo, human
condition.info: both sexes, human, plasma, oral, 25 mg, 25 mg QD, Day 14, plasma, τ = 24 hours (N = 8); geometric mean; read-out: AUC(0-τ)

molecule	AUC, ng·h/mL
O[C@H]1CC[C@H](Nc2ncc3nc(Nc4c(F)cc(F)cc4F)n([C@H]4CCOC4)c3n2)CC1	4400

----------
measurement.protocol: Toxicokinetics in pregnant female rabbits
Assay type: in vivo, rabbit
condition.info: female, New Zealand White Hra:(NZW)SPF, rabbit, plasma, po, 10 mg/kg/day, pregnant rabbits, 10 mg/kg/d oral, Gestation Day 18

molecule	unit.symbol	Cmax
O[C@H]1CC[C@H](Nc2ncc3nc(Nc4c(F)cc(F)cc4F)n([C@H]4CCOC4)c3n2)CC1 [Compound I]	µg/mL	6.73

----------
measurement.protocol: clinical
condition.info: male, human, in vivo, po, 100 mg, Vz/F

molecule	Vd/F [L]
O[C@H]1CC[C@H](Nc2ncc3nc(Nc4c(F)cc(F)cc4F)n([C@H]4CCOC4)c3n2)CC1 [Compound I]	308

----------
measurement.protocol: Toxicokinetics in pregnant female rats
Format: in vivo, rat
condition.info: female, Crl:CD(SD), rat, plasma, 25 mg/kg/day; pregnant rats, 25 mg/kg/d oral, Gestation Day 6

molecule	AUC
O[C@H]1CC[C@H](Nc2ncc3nc(Nc4c(F)cc(F)cc4F)n([C@H]4CCOC4)c3n2)CC1	19500 ng·h/mL

----------
measurement.protocol: Toxicokinetics in pregnant female rabbits
Type: in vivo, rabbit
condition.info: female, New Zealand White Hra:(NZW)SPF, rabbit, fetal plasma / maternal plasma, oral, 40 mg/kg/day; rabbits, 40 mg/kg/d, Gestation Day 19; calculated from individual ratios; read-out: Fetal:Maternal Plasma Ratio

molecule	Kp
O[C@H]1CC[C@H](Nc2ncc3nc(Nc4c(F)cc(F)cc4F)n([C@H]4CCOC4)c3n2)CC1	0.24

----------
measurement.protocol: Toxicokinetics in pregnant female rats
Format: in vivo, rat
condition.info: female, Crl:CD(SD), rat, plasma, 50 mg/kg/day; pregnant rats, 50 mg/kg/d oral, Gestation Day 6

molecule	AUC, µg·h/mL
O[C@H]1CC[C@H](Nc2ncc3nc(Nc4c(F)cc(F)cc4F)n([C@H]4CCOC4)c3n2)CC1	49.5

----------
measurement.protocol: Pharmacokinetics (plasma and urine) of ascending multiple oral doses in healthy volunteers
Type: in vivo, human
condition.info: both sexes, human, oral; 25 mg QD, Day 14, plasma (N = 8); geometric mean; read-out: t1/2 (converted)

compound	unit.symbol	half-life
O[C@H]1CC[C@H](Nc2ncc3nc(Nc4c(F)cc(F)cc4F)n([C@H]4CCOC4)c3n2)CC1 [Compound I]	h	31

----------
measurement.protocol: clinical
condition.info: both sexes, human, in vivo, po, 100 mg, Cmax, Geometric Means

molecule	Cmax, ng/mL
O[C@H]1CC[C@H](Nc2ncc3nc(Nc4c(F)cc(F)cc4F)n([C@H]4CCOC4)c3n2)CC1	654

----------
measurement.protocol: clinical
condition.info: both sexes, human, in vivo, po, 100 mg, Cmax, Geometric Mean

molecule	Cmax (ng/mL)
O[C@H]1CC[C@H](Nc2ncc3nc(Nc4c(F)cc(F)cc4F)n([C@H]4CCOC4)c3n2)CC1	602

----------
measurement.protocol: Pharmacokinetics of a single ascending oral dose in healthy male subjects
Type: in vivo, human
condition.info: male, human, in vivo; single oral doses 5-200 mg, unformulated in a capsule, healthy males; read-out: median Tmax
readout: Tmax

molecule	experimental.result
O[C@H]1CC[C@H](Nc2ncc3nc(Nc4c(F)cc(F)cc4F)n([C@H]4CCOC4)c3n2)CC1	1.5 to 2 h
